Entries and their log10 of AC50 values follow.
target: His6-TEV-PPARγ-(234-505) (Homo sapiens, UniProt P37231); construct: The His6-TEV-PPARγ-(234-505) protein for assay was expressed and purified; TEV cleavage site (N); made in house; experiment: TR-FRET Assay to Measure Co-R Peptide Recruitment to PPARγ; format: biochemical; settings: Co-R peptide (SMRT-ID2) recruitment; top final concentration 20 μM; read-out: TR-FRET i-Ag; AC50
Sequence (P37231 234-505): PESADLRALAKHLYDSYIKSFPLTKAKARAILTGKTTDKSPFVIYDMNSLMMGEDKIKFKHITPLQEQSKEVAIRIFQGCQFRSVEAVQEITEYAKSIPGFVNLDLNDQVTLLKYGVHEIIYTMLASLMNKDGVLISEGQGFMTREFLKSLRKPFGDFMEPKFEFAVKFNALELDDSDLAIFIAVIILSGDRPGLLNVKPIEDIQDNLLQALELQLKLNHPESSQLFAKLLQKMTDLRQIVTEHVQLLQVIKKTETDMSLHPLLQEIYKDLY
Please be aware that the numbers have been log10-transformed from AC50 in nM.

molecule=COc1cc(-c2cc(C(=O)N3CCC(C(=O)NCc4ccc(Cl)cn4)CC3)n[nH]2)c(Cl)cn1 assay_system="His6-TEV-PPARγ-(234-505) (Homo sapiens, UniProt P37231)" test_readout="log10 of AC50" reading=2.36
molecule="COc1cc(-c2cc(C(=O)N3[C@@H]4CC[C@H]3C[C@H](C(=O)NC3CCC(O)(C(F)(F)C(F)(F)F)CC3)C4)n[nH]2)c(F)cn1 (mixture of isomers)" assay_system="His6-TEV-PPARγ-(234-505) (Homo sapiens, UniProt P37231)" test_readout="log10 of AC50" reading=1.20
molecule="COc1cc(-c2cc(C(=O)N3CCC(C(=O)NC4COC(C)(C)C4)CC3)n[nH]2)c(Cl)cn1 (racemic)" assay_system="His6-TEV-PPARγ-(234-505) (Homo sapiens, UniProt P37231)" test_readout="log10 of AC50" reading=2.76
molecule="COc1cc(-c2cc(C(=O)N3CCC(C(=O)NC4CCC5(CCO5)CC4)CC3)n[nH]2)c(F)cn1 (stereo not drawn)" assay_system="His6-TEV-PPARγ-(234-505) (Homo sapiens, UniProt P37231)" test_readout="log10 of AC50" reading=2.91
molecule="COc1cc(-c2cc(C(=O)N3CCC(C(=O)NC4CCN(C5COC5)C4)CC34CC4)n[nH]2)c(F)cn1 (mixture of isomers)" assay_system="His6-TEV-PPARγ-(234-505) (Homo sapiens, UniProt P37231)" test_readout="log10 of AC50" reading=1.99

*Q* Please supply the value of reported log10 of AC50 for the item COc1cc(-c2cc(C(=O)N3CC[C@H](C(=O)NC4CCC(C)(C)N(C)C4)CC34CC4)n[nH]2)c(F)cn1 (single isomer, unassigned) [Example 424-B]
*A* 2.32
